Can you tell me melting point for the items I'm about to list?

Consider the worked cases shown below.
- Cc1cnn(-c2nc3ccccc3c(=O)[nH]2)c1: 169 to 171 °C
- CN(C)CC(c1ccccc1)c1nnc2n1-c1ccc(Cl)cc1C(c1ccccc1)=NC2 (stereo unspecified): 168 to 170 °C
- Cc1oc2cc(C=O)ccc2c1C: 73 to 74 °C

Record melting point per entry; entries follow.
1. CC(C(=O)N1c2ccccc2N(C)C(=O)c2cnc(-c3ccccc3)nc21)N1CCCCC1 (stereo unspecified)
2. CC(C)Sc1cc2c(cc1Cl)N=C(c1ccncc1)NS2(=O)=O
3. OCc1cnc2cc(C(F)(F)F)ccc2c1O
4. O=C1CCC(CCC(=O)OCc2ccc(C(F)(F)F)cc2)N1 (stereo unspecified)
5. Cc1cc(=O)n(C)c2ccc(OCCCN3CCC(NC(=O)c4ccccc4)CC3)cc12
6. COc1ccccc1N1CCc2c1c1cccc(OC)c1[nH]c2=O

Result ::
1: 214 to 215 °C; 2: 254 to 256 °C; 3: 302 to 304 °C; 4: 81 to 82 °C; 5: 188 to 190 °C; 6: 185 to 188 °C

Record melting point per entry; entries follow.
1. Cc1cc(Br)ccc1NC(=O)CC(=O)NCCO
2. O=C(Nc1cccc2c(N=P(c3ccccc3)(c3ccccc3)c3ccccc3)ccnc12)c1c(Cl)cccc1Cl
3. N=C(N)NC(=O)c1cn(-c2ccc3ccccc3n2)c2ncccc12
4. CC(C)C(O)c1cc2ccncc2[nH]1 (stereo unspecified)
5. COc1cc(OC)nc(Oc2ccccc2C=NO)n1
6. C#CCOc1ccc(C(=O)C=Cc2ccc(C#N)cc2)c(O)c1

Result ::
139 to 142 °C
276 to 281 °C
242 °C
140 to 144 °C
125 to 128 °C
188 to 190 °C

Sample NC(=O)C1CCCN(C(c2ccccc2)c2ccccc2)C1 (stereo unspecified) ; melting point observed: 86 to 87 °C

Data provenance is a melting point compilation (Tetko et al.; mined from patent text by program, amines drawn as free bases though some values may be those of a salt).
